Field: log10 of IC50. Provide a value for each of the compounds that follow.
- targetOrSystem: Calcitonin gene-related peptide type 1 receptor (Homo sapiens, UniProt O60894+Q16602)
- Sequence (Q16602 whole entry, one chain of several): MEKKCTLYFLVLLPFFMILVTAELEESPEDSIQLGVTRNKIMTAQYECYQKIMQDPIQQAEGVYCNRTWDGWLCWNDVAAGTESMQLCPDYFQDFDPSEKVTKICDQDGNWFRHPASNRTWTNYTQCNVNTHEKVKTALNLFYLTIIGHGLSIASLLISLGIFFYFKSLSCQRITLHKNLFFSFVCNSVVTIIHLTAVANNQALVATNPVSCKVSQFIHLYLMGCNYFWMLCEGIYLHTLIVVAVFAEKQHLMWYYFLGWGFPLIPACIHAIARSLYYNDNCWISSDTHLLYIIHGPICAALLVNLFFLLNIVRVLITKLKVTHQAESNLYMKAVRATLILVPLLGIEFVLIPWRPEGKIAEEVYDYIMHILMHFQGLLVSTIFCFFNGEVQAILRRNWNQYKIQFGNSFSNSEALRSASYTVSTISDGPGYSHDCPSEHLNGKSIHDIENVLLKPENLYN
- assaySummary: Displacement of [125]CGRP from human CGRP receptor expressed in human SK-N-MC cell membrane after 2 hrs by scintillation counting
- Assay type: cell membranes
Note: values are log10 of IC50 expressed in nM.

The compound identified as O=C(CC(Cc1ccc2[nH]ncc2c1)C(=O)N1CCC2(CC1)OCCO2)N1CCC(N2Cc3ccccc3NC2=O)CC1 (racemic) registered its log10 of IC50 at 1.94

Lab book: log10 of IC50 of `O=C(C[C@H](Nc1ccc(Cl)cc1[N+](=O)[O-])C(=O)N1CCC(N2CCCCC2)CC1)N1CCC(N2Cc3ccccc3NC2=O)CC1` noted as 1.51

Note to self: log10 of IC50 recorded for `O=C(C[C@H](Nc1ccc2[nH]ncc2c1)C(=O)N1CCC(N2CCCCC2)CC1)N1CCC(N2Cc3ccccc3NC2=O)CC1` was 2.23

Note to self: log10 of IC50 recorded for Cc1cc(CC(CC(=O)N2CCC(N3Cc4ccccc4NC3=O)CC2)C(=O)N2CCC(N3CCCCC3)CC2)cc2cn[nH]c12 (racemic) was -1.13

Noted for Cc1cc(CC(CC(=O)N2CCC3(CC2)OC(=O)Nc2ccccc23)C(=O)N2CCC(N3CCCCC3)CC2)cc2cn[nH]c12 (racemic) : its log10 of IC50 reads -0.48

The compound listed as `O=C(C[C@H](Nc1ccncn1)C(=O)N1CCC(N2CCCCC2)CC1)N1CCC(N2Cc3ccccc3NC2=O)CC1` shows log10 of IC50 equal to 3.15

log10 of IC50 reading for `O=C(Nc1ccccc1F)N[C@@H](CC(=O)N1CCC(N2Cc3ccccc3NC2=O)CC1)C(=O)N1CCC(N2CCCCC2)CC1` : 1.65

log10 of IC50 in this record for `O=C(C[C@H](Nc1ccc2[nH]ccc2c1)C(=O)N1CCC(N2CCCCC2)CC1)N1CCC(N2Cc3ccccc3NC2=O)CC1` : 2.26

Record summary for `O=C(N[C@@H](CC(=O)N1CCC(N2Cc3ccccc3NC2=O)CC1)C(=O)N1CCC(N2CCCCC2)CC1)c1ccc(F)c(F)c1` : reported log10 of IC50 = 2.63

Looking up `Cc1nc(N[C@@H](CC(=O)N2CCC(N3Cc4ccccc4NC3=O)CC2)C(=O)N2CCC(N3CCCCC3)CC2)nc(N)c1[N+](=O)[O-]` , I found its log10 of IC50 recorded as 1.90

The compound identified as Cc1cc(CC(CC(=O)N2CCC(N3Cc4cccc(F)c4NC3=O)CC2)C(=O)N2CCC(N3CCCCC3)CC2)cc2cn[nH]c12 (racemic) registered its log10 of IC50 at -0.74

// recorded log10 of IC50 for `Cc1cc(C[C@@H](CC(=O)N2CCC(N3Cc4ccccc4NC3=O)CC2)C(=O)N2CCC(N3CCCCC3)CC2)cc2cn[nH]c12` : -1.22

response.value for Cc1cc(CC(CC(=O)N2CCC(c3cc4ccccc4[nH]c3=O)CC2)C(=O)N2CCC(N3CCCCC3)CC2)cc2cn[nH]c12 (racemic) (field: log10 of IC50) = -0.52

What the record says about Cc1cc(CC(CC(=O)N2CCC(n3cc(-c4ccccc4)[nH]c3=O)CC2)C(=O)N2CCC(N3CCCCC3)CC2)cc2cn[nH]c12 (racemic) : log10 of IC50 is -0.82

log10 of IC50 reading for Cc1cc(CC(CC(=O)N2CCC3(CC2)NC(=O)Nc2ccccc23)C(=O)N2CCC(N3CCCCC3)CC2)cc2cn[nH]c12 (racemic) : -0.47

// log10 of IC50 value for `O=C(Nc1ccc(Cl)cc1Cl)N[C@@H](CC(=O)N1CCC(N2Cc3ccccc3NC2=O)CC1)C(=O)N1CCC(N2CCCCC2)CC1` : 1.56

Recorded log10 of IC50 (compound Cc1cc(CC(CC(=O)N2CCC(N3Cc4ccccc4NC3=O)CC2)C(=O)N2CCC(C)CC2)cc2cn[nH]c12 (racemic) ): 0.43

What the record says about `O=C(C[C@H](Nc1cc(Cl)ncn1)C(=O)N1CCC(N2CCCCC2)CC1)N1CCC(N2Cc3ccccc3NC2=O)CC1` : log10 of IC50 is 1.99

The recorded log10 of IC50 for entry O=C1Nc2ccccc2C2(CCN(C(=O)CC(Cc3ccc4[nH]ncc4c3)C(=O)N3CCC(N4CCCCC4)CC3)CC2)O1 (racemic) equals 1.18

// `O=C(C[C@H](NCc1ccc2[nH]ccc2c1)C(=O)N1CCC(N2CCCCC2)CC1)N1CCC(N2Cc3ccccc3NC2=O)CC1` : log10 of IC50 value = 2.58

Query O=C1Nc2ccccc2C2(CCN(C(=O)CC(Cc3ccc4[nH]ncc4c3)C(=O)N3CCC4(CC3)OCCO4)CC2)O1 (racemic) yields log10 of IC50 of 2.66

Lab book: log10 of IC50 of Cc1cc(CC(CC(=O)N2CCC(N3Cc4ccccc4NC3=O)CC2)C(=O)N2CCC3(CC2)OCCO3)cc2cn[nH]c12 (racemic) noted as 0.51

Record summary for `Cc1cc(C[C@H](CC(=O)N2CCC(N3Cc4ccccc4NC3=O)CC2)C(=O)N2CCC(N3CCCCC3)CC2)cc2cn[nH]c12` : reported log10 of IC50 = 1.04

// Cc1cc(CC(CC(=O)N2CCC(N3Cc4ccccc4NC3=O)CC2)C(=O)N2CCCCC2)cc2cn[nH]c12 (racemic) : log10 of IC50 value = 0.57

Each recorded value in this set is attributed to ChEMBL document CHEMBL2016512.
